Assay: Human HepG2 cell viability assay in 384 well format
Type: toxicity, cell-based
Set-up: dose 125 nL, time 70.5 hour; concentration not given beside the values
Conditions: HepG2 cells, read-out: Inhibition
measurement.label: cytotoxicity at 70.5 h (%)
Entry rule: numbers only, all in %.

What value of measured cytotoxicity at 70.5 h is listed for Cc1nc(C)n(CC2CCCN(CCCc3ccccc3)C2)n1 (stereo not drawn) ? 4.81

Reported cytotoxicity at 70.5 h for O=C(Nc1ccnn1Cc1ccc(Cl)cc1)C1CCS(=O)(=O)C1 (stereo not drawn) : what is it? -8.12

What cytotoxicity at 70.5 h value was documented for this compound, Nc1cccnc1N1CCC(C(F)(F)F)CC1 ? 14.9

cytotoxicity at 70.5 h lookup needed for CCCc1c(C(=O)N2CCN(c3nccc(OC)n3)CC2)cnn1C , thanks. -5.72

Requested field: cytotoxicity at 70.5 h. Item: Cc1c(CN2CCOCC2)c(O)n(CCc2ccccc2)c(=O)c1C#N -9.75

Requested read-out: cytotoxicity at 70.5 h. Entry: COc1ccc(C(C(=O)O)N2CCCN(C3CCCC3)CC2)cc1OC (stereo not drawn) 18.5

For CN(C)CCCn1ccnc1C1CCCN(c2cc(N)ncn2)C1 (stereo not drawn) , what is its reported cytotoxicity at 70.5 h? -4.4
